All values here come from ChEMBL document CHEMBL3988442.

# SUBJECT_OF_TEST: Chromo domain-containing protein 1 (Saccharomyces cerevisiae (strain ATCC 204508 / S288c) (Baker's yeast))
# TEST_DETAILS: ScCHD-1 Enzyme Inhibition Assay; further: in the data most compounds retested in dose-response had high values
# Type: functional
# Parameters: scale not given: direction of the effect not stated beside the values
# CONDITION_PARAMETERS: 30 µM
Param threshold (-10%) applies to Percent Effect; output 1 when value >= threshold, -1 when value < threshold.

Some solved entries appear below for comparison.
CC(C)N1CCC(N2CCN(C3CCC3)CC2CCO)CC1 (centres undefined) : 1
COCC1c2c(cnn2CC2CCOCC2)CCN1Cc1ccoc1 (centres undefined) : 1

Given Cc1cc(=O)n2ncnc2n1CC(O)c1ccccc1Cl (centres undefined) , state whether its Percent Effect is at least -10%.
1

Given O=C(c1cccnc1N1CCOCC1)N1CCCC1Cn1cccn1 (centres undefined) , state whether its Percent Effect is at least -10%.
-1

Given Cc1cnn(CC2CCCN2c2nn3cc(C)nc3s2)c1 (centres undefined) , state whether its Percent Effect is at least -10%.
-1

* * *

# SUBJECT_OF_TEST: Tyrosyl-tRNA synthetase, putative (Trypanosoma cruzi (strain CL Brener)) (UniProt Q4DSP6)
# Sequence (Q4DSP6 as listed by the source): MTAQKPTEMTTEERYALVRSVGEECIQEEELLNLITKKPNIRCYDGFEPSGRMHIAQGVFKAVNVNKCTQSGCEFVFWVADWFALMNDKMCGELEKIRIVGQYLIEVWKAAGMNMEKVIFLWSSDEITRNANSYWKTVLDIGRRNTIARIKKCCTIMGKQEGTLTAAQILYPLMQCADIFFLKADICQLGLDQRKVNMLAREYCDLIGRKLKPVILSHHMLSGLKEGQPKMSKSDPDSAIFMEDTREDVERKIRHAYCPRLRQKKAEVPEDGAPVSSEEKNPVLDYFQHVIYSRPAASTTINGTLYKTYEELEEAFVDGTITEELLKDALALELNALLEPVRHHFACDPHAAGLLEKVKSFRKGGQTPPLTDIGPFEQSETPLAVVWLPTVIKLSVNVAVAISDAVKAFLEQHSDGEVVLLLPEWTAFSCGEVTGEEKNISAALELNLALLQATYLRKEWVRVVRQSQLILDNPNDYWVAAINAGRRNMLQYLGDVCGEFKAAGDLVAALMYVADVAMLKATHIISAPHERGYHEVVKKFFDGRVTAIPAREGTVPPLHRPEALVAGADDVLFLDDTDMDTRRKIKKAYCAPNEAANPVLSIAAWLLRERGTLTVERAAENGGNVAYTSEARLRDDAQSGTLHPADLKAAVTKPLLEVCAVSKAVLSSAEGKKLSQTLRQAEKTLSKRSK
# TEST_DETAILS: Trypanosoma cruzi tyrosyl tRNA synthetase (TcYRS) _High Tyrosine SOP; further: in the data most compounds retested in dose-response had high values
# Type: functional
# Parameters: scale not given: direction of the effect not stated beside the values
# CONDITION_PARAMETERS: 30 µM
# key: entry, value: Percent Effect
Don't forget the unit after the value.

Below, each entry is followed by its recorded Percent Effect result.
CCn1cc(NC(=O)NC2CCCc3c2cnn3CCO)cn1 (configuration not stated) : 4.92%
CC(C)c1nccn1C1CCCN(C(=O)c2cnc[nH]2)C1 (configuration not stated) : 5.42%
CN(C)c1cncc(C2CCN(CCO)CC2)n1 : 7.53%
O=C(Cn1ccc2sccc2c1=O)NCc1ccc2c(c1)OCO2 : 5.29%
COc1cc(CNC2CCc3nc(C(C)C)nn3C2)cc2c1OCO2 (configuration not stated) : 1.48%
O=C(c1ccncc1)N1CCC(O)(Cn2ccc3ccncc32)CC1 : 4.3%
O=C1NCCN1C1CCN(CCc2cccs2)CC1 : 5.71%
CN(C)S(=O)(=O)c1ccc(OCCNCCn2cccn2)cc1 : -1.04%

Which Percent Effect reading was recorded for the compound CCc1noc(C(C)N2CCC(NC(=O)c3ccc(C)s3)CC2)n1 (configuration not stated) ?
4.3%

Which Percent Effect reading was recorded for the compound `CN(Cc1nnc(C2CC2)n1C)C(=O)c1ccnc(OC2CCC2)c1` ?
0.529%

Which Percent Effect reading was recorded for the compound `O=C(Cc1ccc2c(c1)CCO2)N1CCN(c2cnccn2)CC1` ?
3.43%

Which Percent Effect reading was recorded for the compound `CCO[C@@H]1CO[C@@]2(CCCN(C(=O)c3ccc(OC)c(F)c3)C2)C1` ?
11.6%

* * *

# key: entry, value: Percent Effect
# Organism: Homo sapiens
# TEST_DETAILS: To identify inhibition of the IFN signalling (Jak-Stat) pathway via expression of an eGFP reporter gene under the control of an IFN-stimulated response element (ISRE) containing MxA promoter.
# Format: functional
# Design: scale not given: direction of the effect not stated beside the values
# CONDITION_PARAMETERS: 30 µM
Output spec: scalar in %, unitless text.

Below, each entry is followed by its recorded Percent Effect result.
c1ccc(-c2cnc(CN3CCn4c(nnc4C4CC4)C3)o2)cc1 : 18.2
O=C(Nc1cc(F)ccc1OCC1CCCO1)c1ccc(O)nc1 (stereo not drawn) : -5.06
Cc1ccc(OCCCNC(=O)NC(C)c2nncn2C)cc1 (stereo not drawn) : -0.0367
CC(C)c1nnc2n1CCN(CC(=O)Nc1nncs1)C2 : -15.7
CN(Cc1cccc(F)c1)C(=O)CN1CCCC1CCc1ccccc1 (stereo not drawn) : -5.85

Below: the item to evaluate.
Which Percent Effect reading was recorded for the molecule COc1ncccc1CNC(=O)NC1CCOc2ccccc21 (stereo not drawn) ?
10.6
